- ASSAY_METHOD_TEXT: AUC in rat at 2 mg/kg, iv
- Type: ADME, organism-based
- Set-up: dose 2 mg/kg
- CONDITIONS: in vivo
MEASURE_NAME: AUC (ng·h/mL)
Provide the reading as a plain figure in ng·h/mL.

Task item: Which AUC value is on record for N#Cc1cccc(CNc2ccc3ncnc(Nc4ccc(F)c(Cl)c4)c3c2)c1 ?
Reply: 1110

====

- ASSAY_METHOD_TEXT: Metabolic stability in human microsomes assessed as parent compound remaining incubated for 30 mins
- Format: ADME, Microsome
- CONDITIONS: read-out: Stabilty
MEASURE_NAME: remaining at 0.5 h
Param answer (str): number followed by unit.

Task item: Could you share which remaining at 0.5 h value was measured for N#Cc1cccc(CNc2ccc3ncnc(Nc4ccc(F)c(Cl)c4)c3c2)c1 ?
Reply: 56.4%

The origin of these recorded values is ChEMBL document CHEMBL4665738.
